All figures here come from ChEMBL document CHEMBL1201862.

Provide the recorded GI50 for the entries that follow.

Enquiry: Form entry - test system: HCT-15; read-out: GI50; compound: COC(=O)C1=CON2C3CC4CC(C3)CC(C4)C12C (stereo unspecified)
Return: > 100 µM

Enquiry: Form entry - test system: HCT-15; read-out: GI50; compound: Cc1nc2ccc(C(F)(F)F)cc2nc1NCc1ccc(Cl)c(Cl)c1
Return: 12.7 µM

Enquiry: Form entry - test system: HCT-15; read-out: GI50; compound: O=C1C(=Cc2ccc(F)cc2)C(=O)c2ccccc21
Return: > 100 µM

Enquiry: Form entry - test system: HCT-15; read-out: GI50; compound: N#CC1(CCCI)CCCC1
Return: 14.5 µM

Enquiry: Form entry - test system: HCT-15; read-out: GI50; compound: CC(OP(=O)(O)O)C(N)C(=O)O (stereo unspecified)
Return: > 100 µM

Enquiry: Form entry - test system: HCT-15; read-out: GI50; compound: COc1cc2c(cc1OC)C1CCc3ccccc3CN1CC2 (stereo unspecified)
Return: > 100 µM

Enquiry: Form entry - test system: HCT-15; read-out: GI50; compound: CCCCCCCCCCCCCCCC(=O)NCC(COP(=O)([O-])OCC[N+](C)(C)C)OCC (stereo unspecified)
Return: 6.4 µM

Enquiry: Form entry - test system: HCT-15; read-out: GI50; compound: CC(=O)c1ccc2c(c1)CC1(C2)Cc2ccc3c(c2C1=O)CCC3 (stereo unspecified)
Return: 25 µM

Enquiry: Form entry - test system: HCT-15; read-out: GI50; compound: CCc1cccc(C(C)C)c1NC(=O)C(=O)CC(=O)c1c(C)[n+]([O-])c2ccccc2[n+]1[O-]
Return: > 100 µM

Enquiry: Form entry - test system: HCT-15; read-out: GI50; compound: Cn1c2ccccc2c2ccc3c(c21)C(=O)c1ccc2c4ccccc4n(C)c2c1C3=O
Return: > 100 µM

Enquiry: Form entry - test system: HCT-15; read-out: GI50; compound: CCOC(=O)Nc1ccc(S(=O)(=O)NCCCl)cc1.CCOC(=O)Nc1ccc(S(=O)(=O)NCCCl)cc1.O=C(O)c1ccc(/N=N/Cl)cc1O
Return: > 100 µM

Enquiry: Form entry - test system: HCT-15; read-out: GI50; compound: Cc1c(-c2cc(-c3ccccc3)n[nH]c2=O)c2ccccc2n1C
Return: > 100 µM

Enquiry: Form entry - test system: HCT-15; read-out: GI50; compound: O=C1NC(=O)C(C(=O)C(=O)Nc2cccc(C(F)(F)F)c2)C(=O)N1
Return: > 100 µM

Enquiry: Form entry - test system: HCT-15; read-out: GI50; compound: CC1(OCc2ccccc2)C(=O)N2C1NCC2(C)C (stereo unspecified)
Return: > 100 µM

Enquiry: Form entry - test system: HCT-15; read-out: GI50; compound: Nc1ncnc2c1ncn2[C@@H]1C[C@H](NO)[C@@H](O)[C@H]1O
Return: 16.4 µM

Enquiry: Form entry - test system: HCT-15; read-out: GI50; compound: COC(=O)C(=O)C(C(=O)C(=O)Nc1ccccc1[N+](=O)[O-])c1nc2ccc([N+](=O)[O-])cc2nc1O (stereo unspecified)
Return: > 100 µM

Enquiry: Form entry - test system: HCT-15; read-out: GI50; compound: CCC(C)(C)n1c(C)nc2c1C(=O)c1ccccc1C2=O
Return: 23.1 µM

Enquiry: Form entry - test system: HCT-15; read-out: GI50; compound: CCOC(=O)C(NCc1cccc(C(F)(F)F)c1)(NC(=O)c1ccccc1)C(F)(F)F (stereo unspecified)
Return: 23.1 µM

Enquiry: Form entry - test system: HCT-15; read-out: GI50; compound: O=C(NCCCCCCNC(=O)NC1OCC(O)C(O)C1O)NC1OCC(O)C(O)C1O (stereo unspecified)
Return: > 100 µM

Enquiry: Form entry - test system: HCT-15; read-out: GI50; compound: Cc1cc(N(CCCCl)CCCCl)ccc1/C=N/c1cccc(Cl)c1
Return: 13.6 µM

Enquiry: Form entry - test system: HCT-15; read-out: GI50; compound: O=C(CCc1ccc(O)cc1)c1c(O)cc(O)cc1OC1OC(CO)C(O)C(O)C1O (stereo unspecified)
Return: > 100 µM
